Below, each of the molecules is paired with its reported In-cell NAPE-PLD activity in RAW 264.7 (10 μM) with PED-A1 or flame-NAPE as substrate value.
- system tested: NAPE-PLD activity of RAW264.7 macrophages (Mus musculus)
- Construct: endogenous in cells; host or cells: RAW264.7
- procedure details: Cell-based NAPE-PLD activity in RAW264.7 macrophages (PED-A1 with orlistat)
- experimental conditions: Table 3; 10 μM
endpoint name: In-cell NAPE-PLD activity in RAW 264.7 (10 μM) with PED-A1 or flame-NAPE as substrate (%)

1. Cc1cccc2sc(NC(=O)C3CCN(S(=O)(=O)c4ccc(F)c(Cl)c4)CC3)nc12: 136
2. Cc1cc(C)c2sc(NC(=O)C3CCN(S(=O)(=O)c4ccc(F)cc4)CC3)nc2c1: 139
3. Cc1cc2nc(NC(=O)C3CCN(S(=O)(=O)c4ccc(F)cc4)CC3)sc2cc1C: 155
4. Cn1cc(S(=O)(=O)N2CCC(C(=O)Nc3nc4ccccc4s3)CC2)cn1: 102
5. Cc1cccc2sc(NC(=O)C3CCN(S(=O)(=O)c4cnn(C)c4)CC3)nc12: 98

###

- System: RAW264.7 mouse macrophages
- procedure details: Cytotoxicity (MTT) in RAW264.7 macrophages
- Assay type: cell-based
- experimental conditions: Table 3; 33 μM
Response field label: string, one of 1 (yes) (% viability RAW 264.7 (33 μM) strictly below 90%) or 0 (no).

1. Cc1cccc2sc(NC(=O)C3CCN(S(=O)(=O)c4cnn(C)c4)CC3)nc12: 1 (yes)
2. Cc1ccc2sc(NC(=O)C3CCN(S(=O)(=O)c4ccc(F)cc4)CC3)nc2c1C: 1 (yes)
3. O=C(Nc1nc2ccccc2s1)C1CCN(S(=O)(=O)c2cccnc2)CC1: 1 (yes)
4. O=C(Nc1nc2ccccc2s1)C1CCN(S(=O)(=O)c2ccc(F)c(Cl)c2)CC1: 0 (no)

###

- system tested: recombinant mouse NAPE-PLD (Mus musculus, UniProt Q8BH82)
- Construct: hexahistidine (His6) (C); made in house; host or cells: E. coli
- Sequence (Q8BH82 1-396): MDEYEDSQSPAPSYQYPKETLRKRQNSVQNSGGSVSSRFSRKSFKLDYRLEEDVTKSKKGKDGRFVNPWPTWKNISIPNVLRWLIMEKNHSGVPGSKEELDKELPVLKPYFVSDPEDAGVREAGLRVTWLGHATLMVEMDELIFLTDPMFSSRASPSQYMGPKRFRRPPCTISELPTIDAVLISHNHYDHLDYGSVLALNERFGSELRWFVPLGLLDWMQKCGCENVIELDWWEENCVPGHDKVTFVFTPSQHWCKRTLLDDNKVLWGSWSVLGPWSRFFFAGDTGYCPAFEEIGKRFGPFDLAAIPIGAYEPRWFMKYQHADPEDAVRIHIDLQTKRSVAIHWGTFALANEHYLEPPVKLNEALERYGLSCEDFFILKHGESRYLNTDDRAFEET
- procedure details: In vitro fluorescence NAPE-PLD activity assay (HTS/CRC) with recombinant mouse NAPE-PLD and PED-A1
- Type: biochemical
- experimental conditions: Table 1; compound concentration to induce 175% basal activity
endpoint name: bAC175 (nM)

1) Cc1cc2nc(NC(=O)C3CCN(S(=O)(=O)c4ccc(F)cc4)CC3)sc2cc1C: 2400
2) Cc1ccc2sc(NC(=O)C3CCN(S(=O)(=O)c4ccc(F)cc4)CC3)nc2c1C: 1480
3) Cc1ccc(S(=O)(=O)N2CCC(C(=O)Nc3nc4c(C)cc(C)cc4s3)CC2)cc1: 1690
4) Cc1cc(C)c2sc(NC(=O)C3CCN(S(=O)(=O)c4ccc(F)cc4)CC3)nc2c1: 750

###

- system tested: Fatty Acid Amide Hydrolase (FAAH) (Homo sapiens)
- Construct: purchased Cayman Chemicals
- Sequence (O00519 whole entry): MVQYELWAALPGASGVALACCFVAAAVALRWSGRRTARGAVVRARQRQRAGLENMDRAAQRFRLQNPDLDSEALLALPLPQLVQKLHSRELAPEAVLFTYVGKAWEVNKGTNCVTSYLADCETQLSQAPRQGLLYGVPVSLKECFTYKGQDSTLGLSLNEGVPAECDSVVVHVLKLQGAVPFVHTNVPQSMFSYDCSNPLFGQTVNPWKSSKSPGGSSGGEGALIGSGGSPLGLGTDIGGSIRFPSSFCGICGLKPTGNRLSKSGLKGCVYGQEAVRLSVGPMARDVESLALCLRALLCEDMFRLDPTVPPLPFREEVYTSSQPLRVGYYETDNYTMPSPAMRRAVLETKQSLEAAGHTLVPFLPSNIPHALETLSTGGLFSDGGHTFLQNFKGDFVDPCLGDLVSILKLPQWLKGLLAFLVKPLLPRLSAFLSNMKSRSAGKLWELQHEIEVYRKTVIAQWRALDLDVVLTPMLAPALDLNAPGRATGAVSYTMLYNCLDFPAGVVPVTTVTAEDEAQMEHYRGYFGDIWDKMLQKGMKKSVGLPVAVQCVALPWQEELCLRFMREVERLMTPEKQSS
- procedure details: FAAH activity assay (Cayman Chemicals)
- Format: biochemical
- experimental conditions: Table 3; 33 μM
endpoint name: Remaining FAAH Activity (33 μM)

1) Cc1cccc2sc(NC(=O)C3CCN(S(=O)(=O)c4ccc(F)c(Cl)c4)CC3)nc12 [VU209]: 88%
2) O=C(Nc1nc2ccccc2s1)C1CCN(S(=O)(=O)c2ccc(F)c(Cl)c2)CC1 [VU233]: 90%
3) Cc1ccc(S(=O)(=O)N2CCC(C(=O)Nc3nc4c(C)cc(C)cc4s3)CC2)cc1 [VU575]: 90%
4) Cc1ccc2sc(NC(=O)C3CCN(S(=O)(=O)c4ccc(F)cc4)CC3)nc2c1C [VU517]: 90%
5) Cc1ccc2nc(NC(=O)C3CCN(S(=O)(=O)c4ccc(F)cc4)CC3)sc2c1 [VU486]: 89%
6) Cc1cccc2sc(NC(=O)C3CCN(S(=O)(=O)c4cnn(C)c4)CC3)nc12 [VU210]: 89%

###

Below, each of the molecules is paired with its reported Emax value.
- system tested: recombinant mouse NAPE-PLD (Mus musculus, UniProt Q8BH82)
- Construct: hexahistidine (His6) (C); made in house; host or cells: E. coli
- procedure details: In vitro fluorescence NAPE-PLD activity assay (HTS/CRC) with recombinant mouse NAPE-PLD and PED-A1
- Format: biochemical
- experimental conditions: Table 3; read-out: In vitro Emax (100% activity is baseline activity of vehicle only)
endpoint name: Emax (%)

1) Cc1ccc2sc(NC(=O)C3CCN(S(=O)(=O)c4ccc(F)cc4)CC3)nc2c1C [VU517]: 213
2) Cc1cccc2sc(NC(=O)C3CCN(S(=O)(=O)c4ccc(Cl)cc4)CC3)nc12 [VU542]: 183
3) Cc1ccc(S(=O)(=O)N2CCC(C(=O)Nc3nc4c(C)cc(C)cc4s3)CC2)cc1 [VU575]: 215

###

- system tested: recombinant mouse NAPE-PLD (Mus musculus, UniProt Q8BH82)
- Construct: hexahistidine (His6) (C); made in house; host or cells: E. coli
- procedure details: In vitro fluorescence NAPE-PLD activity assay (HTS/CRC) with recombinant mouse NAPE-PLD and PED-A1
- Type: biochemical
- experimental conditions: Table 3; read-out: In vitro Emax (100% activity is baseline activity of vehicle only)
Below, each of the molecules is paired with its reported Emax value.
endpoint name: Emax

1) COc1ccc(S(=O)(=O)N2CCC(C(=O)Nc3nc4c(C)cccc4s3)CC2)cc1: ~119%
2) Cc1cc(F)ccc1S(=O)(=O)N1CCC(C(=O)Nc2nc3c(C)cccc3s2)CC1: ~151%
3) Cn1cc(S(=O)(=O)N2CCC(C(=O)Nc3nc4ccccc4s3)CC2)cn1: ~150%

###

- system tested: recombinant mouse NAPE-PLD (Mus musculus, UniProt Q8BH82)
- Construct: hexahistidine (His6) (C); made in house; host or cells: E. coli
- procedure details: In vitro fluorescence NAPE-PLD activity assay (HTS/CRC) with recombinant mouse NAPE-PLD and PED-A1
- Type: biochemical
- experimental conditions: Table 3; read-out: In vitro EC50
- Description: Using the fluorogenic NAPE substrate, PED-A1, and recombinant mouse NAPE-PLD (rNAPE-PLD), an in vitro high-throughput (HTS) assay was conducted to screen ˜40,000 compounds for their ability to modulate NAPE-PLD activity. […] In vitro fluorescence NAPE-PLD activity assays using recombinant NAPE-PLD and either PED-A1 or flame-NAPE as fluorogenic substrate were performed as previously described except with small modifications as noted below. […]
pEC50: −log10 of the molar value.
Below, each of the compounds is paired with its reported pEC50 value.
endpoint name: pEC50

1. Cn1cc(S(=O)(=O)N2CCC(C(=O)Nc3nc4ccccc4s3)CC2)cn1 [VU227]: ~5.54
2. Cc1cccc2sc(NC(=O)C3CCN(S(=O)(=O)c4cccnc4)CC3)nc12 [VU211]: ~6.03
3. COc1ccc(S(=O)(=O)N2CCC(C(=O)Nc3nc4ccc(C)cc4s3)CC2)cc1 [VU601]: ~6.00
